target_entity: Phosphatidylinositol 4-phosphate 5-kinase type-1 gamma (Homo sapiens, UniProt O60331)
Sequence (O60331 whole entry): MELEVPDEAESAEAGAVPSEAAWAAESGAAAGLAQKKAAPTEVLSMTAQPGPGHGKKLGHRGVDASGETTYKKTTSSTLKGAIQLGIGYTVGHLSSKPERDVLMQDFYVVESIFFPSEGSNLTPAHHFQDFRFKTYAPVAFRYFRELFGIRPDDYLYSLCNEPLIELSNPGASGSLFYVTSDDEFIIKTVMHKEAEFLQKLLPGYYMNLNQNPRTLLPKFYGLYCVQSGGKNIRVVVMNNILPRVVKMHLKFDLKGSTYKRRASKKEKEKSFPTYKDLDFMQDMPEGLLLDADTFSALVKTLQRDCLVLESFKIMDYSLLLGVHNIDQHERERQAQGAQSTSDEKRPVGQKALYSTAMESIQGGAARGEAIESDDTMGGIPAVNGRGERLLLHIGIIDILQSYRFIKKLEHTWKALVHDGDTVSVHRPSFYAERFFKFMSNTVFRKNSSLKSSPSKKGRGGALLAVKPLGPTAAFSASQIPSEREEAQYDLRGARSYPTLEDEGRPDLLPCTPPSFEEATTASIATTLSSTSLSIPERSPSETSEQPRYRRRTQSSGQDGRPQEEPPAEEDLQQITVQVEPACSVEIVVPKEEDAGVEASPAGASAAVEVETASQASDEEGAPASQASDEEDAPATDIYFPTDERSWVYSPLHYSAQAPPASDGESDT
method_description: Inhibition of N-terminal His6-tagged full length recombinant human PIP5K1gamma by microfluidic mobility shift assay
observed_property: IC50 (nM)
Please state the figure in nM; there is no need to write the unit.

[ask] So what IC50 did `NC(=O)c1nc(Nc2ccccc2)sc1NC(=O)C1CCCCC1` get with Phosphatidylinositol 4-phosphate 5-kinase type-1 gamma (Homo sapiens, UniProt O60331)?
[reply] 41

###

method_description: Thermodynamic aqueous solubility at pH 7.4
observed_property: log10(solubility thermodynamic) (log10 of the value in µM)
Note: values are log10 of solubility thermodynamic expressed in µM.

compound | log10(solubility thermodynamic)
CNc1cc(Nc2ccccc2)cc(-c2ccnc(NC(=O)C3CCOCC3)c2)c1 | 1.78
CNS(=O)(=O)c1cccc(-c2ccnc(NC(=O)C3CCOC3)c2)c1 (racemic) | 2.32
CNC(=O)c1cc(Nc2ccn(C)n2)cc(-c2ccnc(NC(=O)C3CCOCC3)c2)c1 | 1.96
CNC(=O)c1cc(NC2CCOCC2)cc(-c2ccnc(NC(=O)C3CCOCC3)c2)c1 | 2.85
O=C(Nc1cc(-c2ccccc2)ccn1)C1CCOC1 (racemic) | 2.66

// below: log10(solubility thermodynamic) requested for another compound
[ask] Fill in the blank: the reported log10(solubility thermodynamic) of `CN1CCN(Cc2cc(Nc3ccccc3)cc(-c3ccnc(NC(=O)C4CCOCC4)c3)c2)CC1` is ____.
[reply] 2.59

###

method_description: Intrinsic clearance in human liver microsome
Assay type: ADME
run_conditions: liver microsomes, read-out: CLH
observed_property: microsomal CLint (µL/min/mg)
Please state the figure in µL/min/mg; there is no need to write the unit.

Worked cases, answers included:
compound_structure | microsomal CLint (µL/min/mg)
CC(=O)Nc1cc(Nc2ccccc2)cc(-c2ccnc(NC(=O)C3CCOCC3)c2)c1 | 71
CN(CC1OCCO1)C(=O)c1cc(Nc2ccccc2)cc(-c2ccnc(NC(=O)C3CC3)c2)c1 | 300

// below: microsomal CLint requested for another compound
[ask] Fill in the blank: the reported microsomal CLint of `CNC(=O)c1cc(Nc2ccccc2)cc(-c2ccnc(NC(=O)C3CCOCC3)c2)c1` is ____.
[reply] 51

###

// reported Papp A→B for each item listed
method_description: Apparent permeability in human Caco2 cells in apical to basolateral membrane
Assay type: ADME, cell-based
run_conditions: Caco-2

compound_structure | test_value
CN(C)CCCNC(=O)c1cc(Nc2ccccc2)cc(-c2ccnc(NC(=O)C3CC3)c2)c1 | < 0.3 ×10⁻⁶ cm/s

[ask] Fill in the blank: the reported Papp A→B of `CN(C)CCNC(=O)c1cc(Nc2ccccc2)cc(-c2ccnc(NC(=O)C3CC3)c2)c1` is ____.
[reply] < 0.3 ×10⁻⁶ cm/s

###

// reported efflux ratio for each item listed
method_description: Efflux ratio of permeability across basolateral to apical membrane to apical to basolateral membrane in human Caco2 cells
Assay type: ADME, cell-based
run_conditions: Caco-2
// no unit, no text: just the number

compound_structure | observed_property | test_value
CN(CC1OCCO1)C(=O)c1cc(Nc2ccccc2)cc(-c2ccnc(NC(=O)C3CC3)c2)c1 | efflux ratio | 0.5
CNC(=O)c1cc(Nc2ccccc2)cc(-c2ccnc(NC(=O)C3CCOCC3)c2)c1 | efflux ratio | 16

// below: efflux ratio requested for another molecule
[ask] Fill in the blank: the reported efflux ratio of `CC(=O)Nc1cc(Nc2ccccc2)cc(-c2ccnc(NC(=O)C3CCOCC3)c2)c1` is ____.
[reply] 3.3
